Tested Target: Polyunsaturated fatty acid lipoxygenase ALOX15 (Homo sapiens) (UniProt P16050)
Sequence (P16050 whole entry, looked up): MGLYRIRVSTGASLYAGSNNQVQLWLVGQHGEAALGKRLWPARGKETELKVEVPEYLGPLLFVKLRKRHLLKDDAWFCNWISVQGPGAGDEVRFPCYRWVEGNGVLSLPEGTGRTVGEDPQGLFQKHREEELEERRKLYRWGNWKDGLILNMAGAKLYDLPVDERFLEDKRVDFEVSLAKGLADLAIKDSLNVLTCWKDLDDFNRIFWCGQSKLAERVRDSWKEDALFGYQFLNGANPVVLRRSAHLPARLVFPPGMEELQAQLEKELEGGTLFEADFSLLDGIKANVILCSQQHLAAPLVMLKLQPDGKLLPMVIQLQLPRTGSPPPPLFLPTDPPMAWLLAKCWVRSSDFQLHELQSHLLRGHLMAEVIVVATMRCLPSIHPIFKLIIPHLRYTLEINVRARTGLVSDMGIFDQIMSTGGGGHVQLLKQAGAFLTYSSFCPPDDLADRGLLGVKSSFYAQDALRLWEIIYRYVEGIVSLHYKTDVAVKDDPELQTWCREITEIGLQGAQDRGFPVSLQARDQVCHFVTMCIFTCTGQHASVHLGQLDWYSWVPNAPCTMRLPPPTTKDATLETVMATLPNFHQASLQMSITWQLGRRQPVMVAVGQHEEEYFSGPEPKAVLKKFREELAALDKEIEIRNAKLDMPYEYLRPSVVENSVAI
Assay Summary: Inhibitors of 12-hLO (12-human lipoxygenase): 15hLO-1 Cuvette-Based Inhibition Counterscreen Assay for 12hLO Followup Compounds
Particulars: purified 15hLO-1, UV 234 nm product formation
Results filed as inconclusive are left out. Active and inactive are the calls of the source. Calls follow the shape of the full dose curve.
Possible outcomes: yes (1) = active, no (0) = inactive

1) CCOc1ccc(-c2[nH]ncc2Oc2cccc(OC)c2)c(O)c1 : yes (1)
2) CC1=NN(c2ccc(Cl)cc2)C(=O)C1C(c1ccccc1O)c1c(C)[nH]n(-c2ccc(Cl)cc2)c1=O (stereo unspecified) : yes (1)
3) O=C(Nc1nnc(C2=COCCO2)o1)c1ccc(Cl)cc1 : no (0)
4) Oc1ccc(Cl)cc1-c1cc(-c2ccco2)[nH]n1 : yes (1)
5) CC(Oc1ccc(Cl)cc1Cl)C(=O)NC1=NN(c2ccccc2)C(=O)C1 (stereo unspecified) : yes (1)
6) COc1cccc(-c2cnc(NCc3cc(Cl)ccc3O)n2C)c1 : yes (1)
7) Cc1ccc(C(=O)Nc2nnc(-c3ccco3)o2)cc1 : no (0)
8) Cc1ccc(C(=O)/C=C/c2c[nH]c3ccccc23)cc1 : yes (1)
9) COc1ccc(C(Nc2ccccn2)c2c(NC(=O)c3ccco3)sc(C)c2C)cc1 (stereo unspecified) : yes (1)
10) COc1cc(CNc2ccc(N3CCCC3)cc2)ccc1OCc1ccccc1 : no (0)
11) CSc1ccc(S(=O)(=O)Nc2ccc(S(=O)(=O)Nc3ccc(C)cc3)cc2)cc1 : yes (1)

Where these numbers come from: PubChem BioAssay AID493220
